Reference source for all entries: ChEMBL document CHEMBL3751851

# method: Cytotoxicity against human U937 cells after 48 hrs by CCK8 assay
# Type: functional, cell-based
# conditionContext: U-937, 48 h
observationType: IC50
State the result as a value with its unit after it.

• OCC(O)Cc1ccc2c(c1)OCO2 (stereo not given) [SAFROLGLYCOL] = 50.8 µM
• OC1OC[C@H](Cc2ccc3c(c2)OCO3)[C@H]1Cc1ccc2c(c1)OCO2 (stereo not given in full) = 15.7 µM
• c1cc2c(cc1C[C@H]1COC[C@@H]1Cc1ccc3c(c1)OCO3)OCO2 = 40.2 µM
• O=C1OC[C@H](Cc2ccc3c(c2)OCO3)[C@H]1Cc1ccc2c(c1)OCO2 [HINOKININ] = 10.4 µM

Read off the recorded IC50 for C=CCc1ccc2c(c1)OCO2 [SAFROLE]
52.3 µM

###

# method: Cytotoxicity against human HL60 cells after 48 hrs by CCK8 assay
# Type: functional, cell-based
# conditionContext: HL-60, 48 h
observationType: IC50 (µM)
Give your result in µM as a bare value.

Examples with their reported IC50 follow.
- OC1OC[C@H](Cc2ccc3c(c2)OCO3)[C@H]1Cc1ccc2c(c1)OCO2 (stereo not given in full): 38.2
- O=C1OC[C@H](Cc2ccc3c(c2)OCO3)[C@H]1Cc1ccc2c(c1)OCO2 [HINOKININ]: 31.3
- OCC(O)Cc1ccc2c(c1)OCO2 (stereo not given) [SAFROLGLYCOL]: 60
- c1cc2c(cc1C[C@H]1COC[C@@H]1Cc1ccc3c(c1)OCO3)OCO2: 51.1

Now consider a different molecule.
Given C=CCc1ccc2c(c1)OCO2 [SAFROLE] , respond with its IC50.
53.2
